Molecular target: UniProt P48048
Experiment: Thallium Flux Assay (ROMK channel functional thallium flux, FLIPR-Tetra)
Format: cell-based
Settings: HEK293 cells stably expressing hROMK (hKir1.1); unit not given in Table 4 (IC50 potencies less than 1 μM); read-out: ROMK TI IC50
pIC50: −log10 of the molar value.
quantity-measured: pIC50

>>> observed_value("Cc1c([C@@H](O)CN2C3CCC2CC2(CC(=O)N(c4ccc(C#N)cn4)C2)C3)ccc2c1COC2=O (stereo partly shown) [Example 29]")
6.70
>>> observed_value("Cc1c([C@@H](O)CN2CCC3(CC2)CCN(c2ccnc(C#N)c2)C3)ccc2c1COC2=O [Example 60]")
7.26
>>> observed_value("Cc1c([C@@H](O)CN2CCC3(CC2)CCN(c2ncc(-n4cnnn4)cn2)C3)ccc2c1COC2=O [Example 15]")
7.24
>>> observed_value("Cc1c([C@@H](O)CN2CCC3(CC2)CCN(c2ccc(S(C)(=O)=O)nn2)C3=O)ccc2c1COC2=O [Example 57]")
7.23

(I) Cc1c([C@@H](O)CN2CCC3(CC2)CCN(c2ccc(S(C)(=O)=O)nn2)C3)ccc2c1COC2=O [Example 32]
(II) Cc1c([C@@H](O)CN2CCC3(CC2)CCN(c2ccc(S(C)(=O)=O)nc2)C3=O)ccc2c1COC2=O [Example 55]
(III) Cc1c([C@@H](O)CN2CCC3(CC2)CCN(c2ncc(C#N)s2)C3)ccc2c1COC2=O [Example 90]
INPUT: List from greatest to least pIC50. Record the ranking as a list of labels in the requested order.
OUTPUT: III, II, I

----------
Molecular target: hROMK (hKir1.1) (Homo sapiens (Human), UniProt P48048)
Sequence (P48048 whole entry): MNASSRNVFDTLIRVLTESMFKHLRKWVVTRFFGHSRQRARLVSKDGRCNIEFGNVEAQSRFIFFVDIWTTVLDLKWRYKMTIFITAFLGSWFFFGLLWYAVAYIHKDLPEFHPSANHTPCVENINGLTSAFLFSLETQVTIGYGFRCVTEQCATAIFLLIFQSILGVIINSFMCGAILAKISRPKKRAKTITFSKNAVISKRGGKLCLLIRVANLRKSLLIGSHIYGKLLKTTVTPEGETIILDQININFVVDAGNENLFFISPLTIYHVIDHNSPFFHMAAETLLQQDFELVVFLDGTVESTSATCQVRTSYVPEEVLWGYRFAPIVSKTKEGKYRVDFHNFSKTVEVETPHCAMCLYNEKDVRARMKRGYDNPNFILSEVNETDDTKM
Experiment: Thallium Flux Assay (ROMK channel functional thallium flux, FLIPR-Tetra)
Type: cell-based
Settings: HEK293 cells stably expressing hROMK (hKir1.1); unit not given in Table 4 (IC50 potencies less than 1 μM); read-out: ROMK TI IC50
pIC50: −log10 of the molar value. Where a name gives a salt, the structure may show the parent alone.
quantity-measured: pIC50

>>> observed_value("Cc1c(C(O)CN2CCC3(CC2)CCN(c2cnc(C#N)cn2)CC3)ccc2c1COC2=O (stereo not shown)")
8.02
>>> observed_value("N#Cc1ccc(N2CCC3(CCN(CC(O)c4ccc5c(c4C4CC4)COC5=O)CC3)C2)nc1 (stereo not shown)")
6.34
>>> observed_value("COc1cc(N2CCC3(CCN(C[C@H](O)c4ccc5c(c4C)COC5=O)CC3)C2)ncc1C#N [Example 82]")
7.48
>>> observed_value("Cc1c([C@@H](O)CN2CCC3(CC2)CN(c2cnc(S(C)(=O)=O)cn2)C(=O)O3)ccc2c1COC2=O")
6.90
>>> observed_value("COc1cc(N2CC3(CCN(C[C@H](O)c4ccc5c(c4C)COC5=O)CC3)OC2=O)ncc1C#N")
7.08
>>> observed_value("Cc1c([C@@H](O)CN2CCC3(CC2)CN(c2ccc(S(C)(=O)=O)cn2)CCO3)ccc2c1COC2=O")
6.42
>>> observed_value("Cc1c([C@@H](O)CN2CCC3(CCN(c4cnc(S(C)(=O)=O)cn4)CC3)C2)ccc2c1COC2=O [Example 65, hydrochloride]")
7.00
>>> observed_value("Cc1c([C@@H](O)CN2CCC3(CC2)CC(=O)N(c2ccc(-n4cnnn4)nc2)C3)ccc2c1COC2=O [Example 72, hydrochloride]")
7.00

(1) CCS(=O)(=O)c1cnc(N2CC3(CCN(C[C@H](O)c4ccc5c(c4C)COC5=O)CC3)CC2=O)cn1 [Example 68, hydrochloride]
(2) Cc1cc(C#N)cnc1N1CCC2(CCN(CC(O)c3ccc4c(c3C)COC4=O)CC2)CC1 (stereo not shown)
INPUT: Hey, between 1 and 2 which has a smaller measured pIC50? Provide the label of your selected option as the answer.
OUTPUT: 2
(2: 6.59, 1: 6.90)

Values were extracted from patent US9751881B2.
